Source listed as ChEMBL document CHEMBL1153722.

Species on record: Rattus norvegicus
assay-method-text: Inhibition of rat recombinant Rab geranylgeranyltransferase at 100 uM in presence of canine Rab7 and rat REP1 NBD-FPP based continuous fluorimetric assay
endpoint-label: inhibition (%)

P. CCCCCCCCCCOc1ccc(C(=O)N[C@@H](Cc2c[nH]cn2)C(=O)N[C@@H](Cc2c[nH]cn2)C(=O)N[C@@H](CO)C(=O)NCCCn2ccnc2)cc1
Q. CCCCCCCCCCCCCC(=O)N[C@@H](Cc1ccc(O)cc1)C(=O)N[C@@H](Cc1ccc(O)cc1)C(=O)N[C@@H](Cc1ccc(O)cc1)C(=O)Nc1ccc(N2CCOCC2)cc1
Please tell me which of the two, P or Q , has the higher reported inhibition value. // caller expects the label of the chosen entry
Q
(Q: 94%, P: 52%)
